The reported numbers originate from paper PMC7994712.

Biological target: Somatostatin receptor 1 (SSTR1) (human), P30872
Sequence (P30872 whole entry): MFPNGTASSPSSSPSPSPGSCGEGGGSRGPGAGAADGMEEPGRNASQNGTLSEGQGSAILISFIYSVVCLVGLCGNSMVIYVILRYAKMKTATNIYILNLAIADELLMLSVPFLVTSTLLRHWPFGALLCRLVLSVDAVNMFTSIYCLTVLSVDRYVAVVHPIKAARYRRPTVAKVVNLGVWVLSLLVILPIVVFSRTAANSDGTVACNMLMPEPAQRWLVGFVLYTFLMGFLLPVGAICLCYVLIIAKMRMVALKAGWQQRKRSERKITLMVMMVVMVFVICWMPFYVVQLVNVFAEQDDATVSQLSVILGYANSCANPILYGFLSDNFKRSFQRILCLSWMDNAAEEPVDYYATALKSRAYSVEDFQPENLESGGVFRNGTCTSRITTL
Test: competition with 125I-Tyr11 SST14
Conditions: L-mesityl alanine (Msa) in place of Phe5; D-Trp at position 7; disulfide bridge between the two cysteines
readout: pIC50
A value of pIC50 is the negative decimal logarithm of a concentration given in moles per litre.

q: Given PCKNFFWKTFTSCK [Cortistatin analogue 4] , respond with its pIC50.
a: 7.83
